Numbers sourced from patent US8685974B2.

Tested on: Alternaria solani
procedure text: Alternaria test (tomato) / protective
Type: in vivo
study conditions: 500 ppm active compound, protective spray, evaluated 7 days after inoculation
Overview of reported efficacy across a group of compounds:
Could you give me the number in %? Just the number is fine.

**Q:** Form field - read-out: efficacy; system: Alternaria solani; submitted item: CC(=O)Nc1cc(-c2cn(C(C)C)nc2-c2ccc(Cl)s2)ccn1
**A:** 100

**Q:** Same again, this time with CCC(C)n1cc(-c2ccnc(NC(=O)C(C)(C)O)c2)c(-c2ccc(Cl)s2)n1 (stereo not shown)
**A:** 90

**Q:** Next record, please: CCn1cc(-c2ccnc(NC(C)=O)c2)c(-c2ccc(Cl)s2)n1
**A:** 95

**Q:** Can you check CC(C)Cn1cc(-c2ccncc2)c(-c2cc3ccsc3s2)n1 next?
**A:** 94

**Q:** Could you do the same for O=C1OCCC1n1cc(-c2ccncc2)c(-c2ccc(Cl)s2)n1 (stereo not shown) , please?
**A:** 78

**Q:** And the next one, CCOCCn1cc(-c2ccncc2)c(-c2ccc(Cl)s2)n1 ?
**A:** 100

**Q:** Repeat for the following compound: CC(C)Cn1cc(-c2ccncc2)c(-c2ccc(F)s2)n1
**A:** 94

**Q:** Now consider CCC(C)n1cc(-c2ccnc(NC(=O)CC3CC3)c2)c(-c2ccc(Cl)s2)n1 (stereo not shown) and answer again.
**A:** 95

**Q:** How about CCC(CC)n1cc(-c2ccncc2)c(-c2ccc(Br)s2)n1 ?
**A:** 100

**Q:** And then O=C1OCCC1n1cc(-c2ccncc2)c(-c2ccc(Br)s2)n1 (stereo not shown) , what is it?
**A:** 94
